# Test system: cloned human dopamine D3 receptors (Homo sapiens, UniProt P35462)
# Construct: expressed in transfected cells; membrane homogenate
# Sequence (P35462 whole entry): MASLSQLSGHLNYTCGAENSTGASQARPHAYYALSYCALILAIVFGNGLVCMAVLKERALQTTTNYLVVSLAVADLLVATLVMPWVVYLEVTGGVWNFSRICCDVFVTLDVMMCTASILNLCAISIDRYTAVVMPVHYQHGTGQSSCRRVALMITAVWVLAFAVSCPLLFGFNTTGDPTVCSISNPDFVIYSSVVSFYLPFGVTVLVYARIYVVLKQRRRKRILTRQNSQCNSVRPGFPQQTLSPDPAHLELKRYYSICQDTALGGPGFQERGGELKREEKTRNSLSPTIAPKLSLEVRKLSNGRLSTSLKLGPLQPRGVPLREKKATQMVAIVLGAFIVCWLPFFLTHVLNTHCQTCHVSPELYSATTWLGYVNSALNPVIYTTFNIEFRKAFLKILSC
# Protocol text: [N-Methyl-3H]Spiroperidol binding to cloned human dopamine D3 receptors
# Condition parameters: read-out: D3 Ki
Measurement kind: pKi
Give bare numbers, as −log10 of the molar value.

Please look at the items below and tell me pKi for each one, in order.
1. CCC1CCC(NC(=O)C2CC2CN2CCN(CCc3ccccc3)CC2)CC1 (racemic)
2. O=C(NCC1CCNCC1)[C@@H]1C[C@H]1CN1CCC(c2noc3ccsc23)CC1
3. Cn1nc(N2CCN(C[C@@H]3C[C@H]3C(=O)NC3CCN(Cc4cc(F)ccc4F)CC3)CC2)c2sccc21
4. COc1ccc2c(c1)c(N1CCN(C[C@@H]3C[C@H]3C(=O)NCCCc3ccccc3)CC1)nn2-c1ccc(C(F)(F)F)cc1

RESULT:
1: 6.82; 2: 7.44; 3: 8.38; 4: 6.88

Hi! Can you tell me pKi for each of these compounds?
1. COc1ccc2c(c1)c(N1CCN(C[C@@H]3C[C@H]3C(=O)N3CCN(C(C)C)CC3)CC1)nn2C
2. Cn1nc(C2CCN(C[C@@H]3C[C@H]3C(=O)NCCCn3ccnc3)CC2)c2sccc21
3. CCC1CCC(NC(=O)C2CC2CN2CCN(c3nn(-c4ccccc4)c4cc(F)ccc34)CC2)CC1 (racemic)
4. COCCN1CCN(C(=O)[C@@H]2C[C@H]2CN2CCN(c3csc4cc(C(F)(F)F)ccc34)CC2)CC1
5. C[C@H]1CC[C@H](NC(=O)[C@@H]2C[C@H]2CN2CCN(c3nn(-c4ccc(F)cc4)c4ccccc34)CC2)CC1
6. COc1ccc2c(c1)c(N1CCN(C[C@@H]3C[C@H]3C(=O)NC3CCN(Cc4ccc(F)cc4)CC3)CC1)nn2C
7. CC(C)(C)OC(=O)N1CCC(NC(=O)[C@@H]2C[C@H]2CN2CCN(c3csc4cc(C(F)(F)F)ccc34)CC2)CC1

RESULT:
1: 7.28; 2: 9.20; 3: 8.38; 4: 7.74; 5: 8.89; 6: 9.30; 7: 7.71

Here are 2 compounds. What values of pKi were reported for them?
1. Cc1cc(C)c(CN2CCN(C(=O)C3CC3CN3CCC(c4noc5ccsc45)CC3)CC2)c(C)c1 (racemic)
2. O=C(NC1CCN(Cc2ccccc2Cl)CC1)[C@@H]1C[C@H]1CN1CCN(c2csc3cc(C(F)(F)F)ccc23)CC1

RESULT:
7.64
8.22

QUERY: So what's the measured pKi for this one? "O=C(c1ccc(Cl)cc1)C1CCN(C(=O)[C@@H]2C[C@H]2CN2CCN(c3csc4cc(C(F)(F)F)ccc34)CC2)CC1"
RESULT: 7.24
